ASSAY_SYSTEM: HLA-A*1101 (Homo sapiens, UniProt P04439, A114D/D185E/E176A/F33Y/L180Q/S129P/T187R)
ASSAY_DETAILS: biochemical
Format: binding
pIC50: −log10 of the molar value. Where no end group is shown, it is not given here.
Returns t if the recorded pIC50 is greater than or equal to 8, and f otherwise.

Below, 7 sequences whose answers are already recorded.
# ENTRY_SEQUENCE, CLASS_LABEL
measured = [
    ("SSIIRSLPK [WWAV NP439–447]", "t"),
    ("SIQKNTIFK [MACV NP82–90]", "t"),
    ("LVSFLLLAGR [LCMV GPC46–55]", "f"),
    ("FTNDSIISH [LCMV GPC112–120]", "f"),
    ("LVTFLLLCGR [LASV GPC46–55]", "f"),
    ("KCLNIMLGK [SABV Z64–72]", "f"),
    ("ATVKNVVLR [GTOV L1977–1985]", "f"),
]

Now turn to the next sequence.
Check this sequence for pIC50 at or above 8: TTYLGPLSCK [LCMV Z24–33]
t
